The origin of these recorded values is ChEMBL document CHEMBL2021758.

- Tested on: MCF7
- assay: Cytotoxicity against human MCF7 cells assessed as reduction of cell viability at 20 uM after 24 hrs
- Assay type: functional, cell-based
Activity calls are given as the source filed them. The calls are words filed in the database; no cut-off is given here.
measure.name: Activity

Known results for compounds:
| smiles.code | Activity |
| --- | --- |
| O=C1C(c2ccccc2)=C(c2ccccc2)C[C@@H]2C[C@@H](O)CN12 | Active |
| O=C1C(c2ccccc2)=C(c2ccc(-c3ccccc3)cc2)C[C@@H]2C[C@@H](O)CN12 | Active |
| O=C1C(c2ccccc2)=C(c2ccccc2)C[C@H]2C[C@@H](O)CN12 | Active |
| O=C1C(c2ccccc2)=C(c2ccc(Br)cc2)C[C@@H]2C[C@@H](O)CN12 | Active |

Now take the following compound into account.
Summary for this compound, `COc1ccc(C2=C(c3ccccc3)C(=O)N3C[C@H](O)C[C@H]3C2)cc1` : Activity is Active
